// provenance: the METLIN SMRT retention time set (Domingo-Almenara et al. 2019)

# Method Description: gradient 5% acetonitrile 3 min, to 50% in 2 min, to 85% in 15 min, held 3 min, 100 µL/min
# Experimental Conditions: column: Zorbax Extend-C18 2.1 x 50 mm; eluents: water / acetonitrile, 0.1% formic acid
Endpoint Label: RP-LC retention time (s)

For orientation, consider the following solved cases.
Fc1ccc(OCc2nc(-c3ccc4c(c3)ncn4CCN3CCCC3)no2)cc1 : 657
CCCCC(=O)Nc1nc(-c2ccc3c(c2)N(CC)C(=O)CO3)c(C)s1 : 982

P: O=C(Cn1c(=O)nc(N2CCCCC2)c2ccccc21)Nc1cc(F)cc(F)c1
Q: CC(C)n1c(CN2CCN(C)CC2)nc2cc(NC(=O)c3cccs3)ccc21
Higher RP-LC retention time: P or Q ? Provide the label of your selected option as the answer.
P

A: Cc1ccc(NC(=O)Cn2nc3c(Oc4cccc(F)c4)nccn3c2=O)cc1F
B: O=C(NCCc1ccccn1)C1CCN(c2cnn(Cc3ccccc3)c(=O)c2)CC1
For the pair A and B , which entry has the numerically smaller recorded RP-LC retention time? Provide the label of your selected option as the answer.
B
(B: 594 s, A: 894 s)
